Molecular target: PTRGER4 (EP4) (Homo sapiens (Human))
Experiment: hEP4 b-arrestin assay (PathHunter HEK 293 PTGER4 b-arrestin cells)
Assay type: cell-based
Details: antagonistic activity on hEP4; mean where measured multiple times
// reported IC50 for each item listed
Express the reported value numerically, then name its unit.

{"columns": ["compound", "property", "measuredResult"],
 "data": [
  ["Cc1cc(-c2cc(NCCn3c(C)cc4c(C)ccc(F)c43)ncn2)sc1C(=O)O [compound 45]", "IC50", "75 nM"],
  ["CCCSc1cc(-c2cc(NCCn3c(C)cc4c(C)ccc(Cl)c43)ncn2)ccc1C(=O)O [compound 334]", "IC50", "603 nM"],
  ["Cc1ccc(F)c2c1cc(C)n2CCNc1cc(-c2ccc(-c3noc(=O)[nH]3)cc2)ncn1 [compound 185]", "IC50", "302 nM"]
]}

Let us examine a further case.
Under PTRGER4 (EP4) (Homo sapiens (Human)): IC50 value of COc1cccc2c1cc(C)n2CCNc1cc(-c2ccc(-c3nnc(C)o3)c(F)c2)ncn1 [compound 300] ?
494 nM

====

Molecular target: PTRGER4 (EP4) (Homo sapiens (Human), UniProt P35408)
Sequence (P35408 whole entry, looked up): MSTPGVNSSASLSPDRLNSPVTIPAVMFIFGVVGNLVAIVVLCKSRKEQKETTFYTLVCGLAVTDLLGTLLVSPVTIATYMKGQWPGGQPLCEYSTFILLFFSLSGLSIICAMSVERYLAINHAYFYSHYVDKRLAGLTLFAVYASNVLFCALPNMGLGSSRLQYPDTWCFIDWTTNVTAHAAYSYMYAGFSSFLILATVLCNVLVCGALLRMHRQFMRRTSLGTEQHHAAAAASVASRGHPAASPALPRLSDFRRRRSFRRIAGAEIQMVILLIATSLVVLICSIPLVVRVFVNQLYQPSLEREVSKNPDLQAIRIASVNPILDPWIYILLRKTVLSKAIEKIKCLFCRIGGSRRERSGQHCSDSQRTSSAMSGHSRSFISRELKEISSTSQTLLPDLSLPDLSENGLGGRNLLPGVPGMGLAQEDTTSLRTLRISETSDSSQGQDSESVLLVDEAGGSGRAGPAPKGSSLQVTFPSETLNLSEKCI
Experiment: hEP4 b-arrestin assay (PathHunter HEK 293 PTGER4 b-arrestin cells)
Format: cell-based
Settings: antagonistic activity on hEP4; mean where measured multiple times
Returns: string. Value is condition met if measured IC50 is below 0.5 µM, and condition not met if it is greater than or equal to it.

Example cases with answers are listed next.
{"columns": ["smilesStr", "testedTarget", "classLabel"],
 "data": [
  ["CCCc1cc(-c2cc(NCCn3c(C)cc4c(OC)c(F)cc(F)c43)ncn2)ccc1C(=O)O", "PTRGER4 (EP4) (Homo sapiens (Human), UniProt P35408)", "condition met"],
  ["COc1ccc(F)c2c1cc(C)n2CCNc1cc(-c2cc(C)c(C(=O)O)c(Cl)c2)ncn1", "PTRGER4 (EP4) (Homo sapiens (Human), UniProt P35408)", "condition met"],
  ["Cc1ccc(F)c2c1cc(C)n2CCNc1cc(-c2ccc3c(c2)CN(C)C3=O)ncn1", "PTRGER4 (EP4) (Homo sapiens (Human), UniProt P35408)", "condition met"],
  ["COc1cccc2c1cc(C)n2CCNc1cc(-c2cc(C)c(C(=O)O)c(Cl)c2)ncn1", "PTRGER4 (EP4) (Homo sapiens (Human), UniProt P35408)", "condition met"],
  ["Cc1cc(F)cc2c1cc(C)n2CCNc1cc(-c2ccc(C(=O)O)c(Cl)c2)ncn1", "PTRGER4 (EP4) (Homo sapiens (Human), UniProt P35408)", "condition not met"]
]}

# check: IC50 < 0.5 µM for COc1ccc(Cl)c2c1cc(C)n2CCNc1cc(-c2cc(C)c(C(=O)O)c(Cl)c2)ncn1
condition met

# check: IC50 < 0.5 µM for CCSc1cc(-c2cc(NCCn3c(C)cc4c(C)ccc(Cl)c43)ncn2)ccc1C(=O)O
condition met

====

// reported IC50 for each item listed
Target: UniProt P43116
Assay: hEP2 b-arrestin assay (PathHunter HEK 293 PTGER2 b-arrestin cells)
Format: cell-based
Settings: hEP2 b-arrestin assay (values without asterisk)
Express the reported value numerically, then name its unit.

Answered examples (2):
{"columns": ["smilesStr", "testedTarget", "measuredResult"],
 "data": [
  ["CCNc1csc(-c2cc(NCCn3c(C)cc4c(OC)ccc(F)c43)ncn2)c1", "UniProt P43116", "88 nM"],
  ["CCOc1cc(-c2cc(NCCn3c(C)cc4c(OC)ccc(F)c43)ncn2)[nH]c1C(=O)O", "UniProt P43116", "7 nM"]
]}

Which IC50 value is on record for COc1ccc(F)c2c1cc(C#N)n2CCNc1cc(-c2ccc(OCCO)cc2)ncn1 ?
41 nM

Which IC50 value is on record for CCOc1cc(-c2cc(NCCn3c(C)cc4c(OC)ccc(F)c43)ncn2)ccc1NCC(=O)O ?
3 nM

====

Target: EP2 (Homo sapiens (Human), UniProt P43116)
Sequence (P43116 whole entry): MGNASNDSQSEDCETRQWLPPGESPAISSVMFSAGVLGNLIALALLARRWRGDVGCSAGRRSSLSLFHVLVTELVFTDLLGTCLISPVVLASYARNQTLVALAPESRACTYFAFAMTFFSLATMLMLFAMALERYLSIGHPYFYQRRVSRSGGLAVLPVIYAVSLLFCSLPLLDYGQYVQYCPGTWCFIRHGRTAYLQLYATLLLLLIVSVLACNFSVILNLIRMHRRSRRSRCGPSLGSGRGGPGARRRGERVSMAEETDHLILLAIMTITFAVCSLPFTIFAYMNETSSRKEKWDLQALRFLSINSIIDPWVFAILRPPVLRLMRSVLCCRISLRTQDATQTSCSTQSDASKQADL
property: log10(IC50) (log10 of the value in µM)
The figures below represent log10 of IC50, where IC50 is stated in µM.

Answered examples (5):
{"columns": ["compound", "testedTarget", "log10(IC50)"],
 "data": [
  ["COc1ccc(F)c2c1cc(C)n2CCNc1cc(-c2ccc(-c3oc(CCC(=O)O)nc3C)cc2)ncn1 [compound 652]", "EP2 (Homo sapiens (Human), UniProt P43116)", -1.22],
  ["CCNc1cc(-c2cc(NCCn3c(C)cc4c(F)ccc(OC)c43)ncn2)ccc1C(=O)O [compound 399]", "EP2 (Homo sapiens (Human), UniProt P43116)", -1.77],
  ["CCOc1cc(-c2cc(NCCn3c(Cl)cc4c(C)ccc(F)c43)ncn2)ccc1C(=O)O [Example 779]", "EP2 (Homo sapiens (Human), UniProt P43116)", -1.55],
  ["COc1cc(F)c(F)c2c1cc(C)n2CCNc1cc(-c2ccc(-c3oncc3C)cc2)ncn1 [compound 738]", "EP2 (Homo sapiens (Human), UniProt P43116)", -1.20],
  ["COc1ccc(F)c2c1cc(C)n2CCNc1cc(-c2ccc(-n3nc(C)cc3C)cc2)ncn1 [compound 459]", "EP2 (Homo sapiens (Human), UniProt P43116)", -1.21]
]}

Which log10(IC50) value is on record for COc1ccc(F)c2c1cc(C)n2CCNc1cc(-c2ccc(-c3cnc(N)o3)cc2)ncn1 [compound 573] ?
-2.15

Which log10(IC50) value is on record for Cc1cc(F)cc2c1cc(C)n2CCNc1cc(-c2ccc3ncccc3c2)ncn1 [compound 732] ?
-1.39

Which log10(IC50) value is on record for Cc1nc2cc(-c3cc(NCCn4c(C)cc5c(C)ccc(F)c54)ncn3)ccc2o1 [compound 686] ?
-0.62

====

Molecular target: EP2 (Homo sapiens (Human), UniProt P43116);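 also: antagonism of PGE2-stimulated cAMP accumulation in SF295 human glioblastoma cells with endogenous EP2, cAMP read by HTRF, expressed relative to DMSO control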
property: pIC50
By convention, pIC50 is the negative base-10 log of a molar concentration.

{"columns": ["smilesStr", "pIC50"],
 "data": [
  ["CCOc1cc(-c2cc(NCCn3c(C)cc4c(OC)cc(F)c(F)c43)ncn2)ccc1C(=O)O", 7.31],
  ["COc1cccc2c1cc(C)n2CCNc1cc(-c2ccc(C(=O)O)c(OC(F)F)c2)ncn1", 8.70],
  ["CCCc1cc(-c2cc(NCCn3c(C)cc4c(OC)cc(Cl)cc43)ncn2)cc(F)c1C(=O)O", 7.74]
]}

Under EP2 (Homo sapiens (Human), UniProt P43116): pIC50 value of CCCOc1cc(-c2cc(NCCn3c(C)cc4c(OC)ccc(F)c43)ncn2)cc(Cl)c1C(=O)O ?
8.00

====

Target: PTRGER4 (EP4) (Homo sapiens (Human), UniProt P35408)
Assay: hEP4 b-arrestin assay (PathHunter HEK 293 PTGER4 b-arrestin cells)
Assay type: cell-based
Details: hEP4 b-arrestin assay (values without asterisk)
property: IC50 (nM)
Express it in nM; write the number only.

Answered examples (5):
{"columns": ["compound", "testedTarget", "IC50 [nM]"],
 "data": [
  ["COc1ccc(F)c2c1cc(C)n2CCNc1cc(-c2cc(O)c(C(=O)O)s2)ncn1 [Example 799]", "PTRGER4 (EP4) (Homo sapiens (Human), UniProt P35408)", 59],
  ["CNc1cc(-c2cc(NCCn3c(C)cc4c(OC)cc(F)cc43)ncn2)ccc1C(=O)O [Example 1017]", "PTRGER4 (EP4) (Homo sapiens (Human), UniProt P35408)", 31],
  ["CCNc1csc(-c2cc(NCCn3c(C)cc4c(C)cc(F)cc43)ncn2)c1 [Example 1069]", "PTRGER4 (EP4) (Homo sapiens (Human), UniProt P35408)", 41],
  ["COc1ccc(F)c2c1cc(C#N)n2CCNc1cc(-c2ccc3cc[nH]c3c2)ncn1 [Example 966]", "PTRGER4 (EP4) (Homo sapiens (Human), UniProt P35408)", 31],
  ["CCSc1cc(-c2cc(NCCn3c(C#N)cc4c(OC)cccc43)ncn2)ccc1C(=O)O [Example 952]", "PTRGER4 (EP4) (Homo sapiens (Human), UniProt P35408)", 21]
]}

Under PTRGER4 (EP4) (Homo sapiens (Human), UniProt P35408): IC50 value of COc1ccc(F)c2c1cc(C)n2CCNc1cc(-c2nc(CC(C)C)c(C(=O)O)s2)ncn1 [Example 1036] ?
20

Under PTRGER4 (EP4) (Homo sapiens (Human), UniProt P35408): IC50 value of CCOc1cc(-c2cc(NCCn3c(C#N)cc4c(OC)cc(F)c(F)c43)ncn2)ccc1OCC(=O)O [Example 944] ?
7

Under PTRGER4 (EP4) (Homo sapiens (Human), UniProt P35408): IC50 value of CCOc1cc(-c2cc(NCCn3c(C)cc4c(OC)ccc(F)c43)ncn2)ccc1-c1noc(=O)[nH]1 [Example 830] ?
12
